Molecular target: human FAAH (Homo sapiens, UniProt O00519)
Sequence (O00519 1-579): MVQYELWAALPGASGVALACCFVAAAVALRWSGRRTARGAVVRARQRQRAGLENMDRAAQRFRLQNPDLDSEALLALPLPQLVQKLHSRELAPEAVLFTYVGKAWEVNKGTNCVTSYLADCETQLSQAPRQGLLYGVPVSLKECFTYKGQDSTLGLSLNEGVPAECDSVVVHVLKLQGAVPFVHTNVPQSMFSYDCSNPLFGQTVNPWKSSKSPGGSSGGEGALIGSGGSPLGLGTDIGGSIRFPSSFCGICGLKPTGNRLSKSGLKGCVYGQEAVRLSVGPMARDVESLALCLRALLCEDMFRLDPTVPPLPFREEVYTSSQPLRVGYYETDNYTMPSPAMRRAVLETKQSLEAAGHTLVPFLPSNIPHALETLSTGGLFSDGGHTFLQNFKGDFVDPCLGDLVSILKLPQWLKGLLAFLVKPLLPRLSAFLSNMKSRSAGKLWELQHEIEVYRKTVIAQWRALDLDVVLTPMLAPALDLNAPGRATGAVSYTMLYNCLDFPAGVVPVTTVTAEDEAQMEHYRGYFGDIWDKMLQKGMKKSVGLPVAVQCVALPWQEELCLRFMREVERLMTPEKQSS
pKi: −log10 of the molar value.
property-measured: pKi

Below, each entry is followed by its recorded pKi result.
{"columns": ["compound", "pKi"],
 "data": [
  ["NC(=O)c1cncc(OC2=NOC(c3ccc(OC(F)(F)F)cc3)C2)c1 (racemic)", "6.00 to 7.00"],
  ["NC(=O)c1cccc(-c2cncc(OC3=NOC(c4ccc(OC(F)(F)F)cc4)C3)c2)c1 (racemic)", "≥ 7.00"],
  ["CC1(c2ccc(OC(F)(F)F)cc2)CC(Oc2ccc(C(=O)NO)nc2)=NO1 (racemic)", "≥ 7.00"]
]}

// Cc1nnc(-c2ccc(OC3=NOC(C)(c4ccc(OC(F)(F)F)cc4)C3)cn2)s1 (racemic) : pKi value = ≥ 7.00

// N[S@SP3](=O)(=O)c1cccc(OC2=NOC(c3ccc(Oc4ccccc4)cc3)C2)c1 (racemic) : pKi value = ≤ 6.00

// BrC1=NO[C@@H](c2ccc(-c3ccccc3)cc2)C1 (racemic) : pKi value = ≥ 7.00

// CC(C)Oc1ccc([C@H]2CC(Oc3cncnc3)=NO2)cc1 (racemic) : pKi value = ≥ 7.00

// BrC1=NOC(c2cccc(Oc3ccccc3)c2)C1 (single isomer, unassigned) : pKi value = ≥ 7.00

// CCCCc1ccc(C2CC(Oc3ccc(S(C)(=O)=O)nc3)=NO2)cc1 (racemic) : pKi value = ≥ 7.00

// FC1(F)Oc2ccc(C3CC(Br)=NO3)cc2O1 (racemic) : pKi value = ≥ 7.00

// O=C(O)c1cccc(OC2=NOC(c3ccc(OC(F)(F)F)cc3)C2)c1 (racemic) : pKi value = ≤ 6.00

// Fc1ccc([C@H]2CC(Br)=NO2)cc1 (racemic) : pKi value = 6.00 to 7.00

// Fc1cccc(OC2=NOC(c3ccc(Oc4ccccc4)cc3)C2)c1 (single isomer, unassigned) : pKi value = 6.00 to 7.00
